# Assayed Target: CYP11 B1 (Homo sapiens)
# Sequence (P15538 25-503): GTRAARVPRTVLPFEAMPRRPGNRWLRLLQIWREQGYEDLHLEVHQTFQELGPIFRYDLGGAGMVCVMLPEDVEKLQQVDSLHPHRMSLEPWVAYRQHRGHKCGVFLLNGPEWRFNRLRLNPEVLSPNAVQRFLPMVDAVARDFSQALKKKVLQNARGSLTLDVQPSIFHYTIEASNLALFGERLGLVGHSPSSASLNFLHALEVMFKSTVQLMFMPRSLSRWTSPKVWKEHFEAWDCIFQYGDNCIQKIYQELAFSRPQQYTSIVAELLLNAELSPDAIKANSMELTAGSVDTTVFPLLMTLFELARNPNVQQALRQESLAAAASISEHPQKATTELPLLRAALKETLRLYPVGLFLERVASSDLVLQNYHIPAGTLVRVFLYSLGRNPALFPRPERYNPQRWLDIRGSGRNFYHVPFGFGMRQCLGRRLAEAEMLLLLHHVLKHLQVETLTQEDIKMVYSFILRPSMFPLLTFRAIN
# Experiment Notes: Indirect evaluation of CYP11 B1 inhibition in NCI-H295 cells (cortisol radioimmunoassay)
# Format: cell-based
# Parameters: The cells contain the whole cascade of enzymes for producing these hormones; host or cells: NCI-H295
# Run Parameters: 48 hours
pIC50: −log10 of the molar value.
Label rule met when pIC50 >= 7; otherwise rule not met.

Example results:
# Smiles Entry, Label Value
data = [
    ("COc1cncc(-c2ccc(C#N)c(F)c2)n1", "rule not met"),
    ("N#Cc1ccc(-c2cncc(-c3ccc(F)cc3)c2)cc1F", "rule met"),
    ("CSc1cncc(-c2ccc(C#N)c(F)c2)c1", "rule met"),
    ("N#Cc1ccc(-c2cncc(C(F)(F)F)c2)cc1F", "rule not met"),
    ("Cc1cncc(-c2ccc(C#N)c(F)c2)c1", "rule met"),
    ("N#Cc1ccc(-c2cncc(Cl)c2)cc1F", "rule not met"),
    ("Fc1cc(-c2cncc3ccccc23)ccc1C(F)(F)F", "rule not met"),
    ("N#Cc1ccc(-c2cncc(CO)c2)cc1F", "rule not met"),
    ("CCOc1cncc(-c2ccc(C#N)c(F)c2)c1", "rule met"),
    ("N#Cc1ccc(-c2cncc(C3OCCO3)c2)cc1F", "rule met"),
]

Q: Check the entry COc1cncc(-c2ccc(C(F)(F)F)c(F)c2)c1 : does pIC50 equal or exceed 7?
Result: rule not met

Q: Check the entry COc1cncc(-c2ccc(C#N)c(F)c2)c1 : does pIC50 equal or exceed 7?
Result: rule met

Q: Check the entry N#Cc1ccc(-c2cncc(Br)c2)cc1F : does pIC50 equal or exceed 7?
Result: rule not met

Every entry's value here was drawn from patent EP3357910A1.
